Exercise: state measured OD450 for each of the binders provided.
Tested on: T1, murine CD22 protein (ACROBiosystems, SI2-M52Ha) (murine, UniProt P35329 22-708)
T1 construct: extracellular domain; also called murine CD22-ECD; murine CD22-ECD-His
T1 sequence (looked up): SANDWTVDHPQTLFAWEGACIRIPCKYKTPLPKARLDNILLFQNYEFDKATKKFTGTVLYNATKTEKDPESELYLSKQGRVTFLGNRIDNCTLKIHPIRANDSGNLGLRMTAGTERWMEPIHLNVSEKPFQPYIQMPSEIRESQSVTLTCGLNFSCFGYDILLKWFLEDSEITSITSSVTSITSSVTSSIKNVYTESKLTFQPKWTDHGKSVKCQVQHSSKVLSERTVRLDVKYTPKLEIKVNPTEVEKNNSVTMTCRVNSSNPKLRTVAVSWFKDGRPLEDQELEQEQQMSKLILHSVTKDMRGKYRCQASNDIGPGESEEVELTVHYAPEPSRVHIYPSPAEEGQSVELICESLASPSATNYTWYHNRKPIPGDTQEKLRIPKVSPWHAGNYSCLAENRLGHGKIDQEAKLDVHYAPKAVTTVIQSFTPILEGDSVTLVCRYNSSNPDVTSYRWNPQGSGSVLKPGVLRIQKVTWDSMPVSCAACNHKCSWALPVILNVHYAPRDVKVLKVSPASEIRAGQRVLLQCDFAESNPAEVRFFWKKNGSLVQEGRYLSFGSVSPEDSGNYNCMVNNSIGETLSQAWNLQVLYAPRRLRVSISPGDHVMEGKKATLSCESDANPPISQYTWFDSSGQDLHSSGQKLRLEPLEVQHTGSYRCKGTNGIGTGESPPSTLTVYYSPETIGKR
Measurement protocol: ELISA, coated murine CD22, 0.00001 nM Ab
Numbers only, in OD450.

Example entries begin here.
# Binder, OD450 / OD450
measured = [
    ("F1.120.15 human-murine chimeric antibody (antibody, human IgG1, kappa, V domains shown, Chimeric, human IgG1 / kappa) VH: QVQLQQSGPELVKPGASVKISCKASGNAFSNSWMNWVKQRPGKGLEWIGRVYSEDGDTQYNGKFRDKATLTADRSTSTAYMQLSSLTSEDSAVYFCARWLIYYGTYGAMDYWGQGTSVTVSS VL: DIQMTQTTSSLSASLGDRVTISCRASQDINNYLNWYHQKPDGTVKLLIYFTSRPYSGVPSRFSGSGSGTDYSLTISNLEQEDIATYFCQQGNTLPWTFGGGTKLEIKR", 0.06),
    ("F1.267.9 human-murine chimeric antibody (antibody, human IgG1, kappa, V domains shown, Chimeric, human IgG1 / kappa; VL tied by name) VH: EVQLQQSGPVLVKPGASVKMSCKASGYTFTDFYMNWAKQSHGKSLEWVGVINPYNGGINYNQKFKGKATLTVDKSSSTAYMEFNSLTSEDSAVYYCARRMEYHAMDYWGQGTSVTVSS VL: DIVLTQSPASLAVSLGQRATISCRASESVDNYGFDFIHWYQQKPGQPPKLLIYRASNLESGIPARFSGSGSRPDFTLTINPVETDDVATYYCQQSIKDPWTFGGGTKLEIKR", 0.07),
]

Now for another entry.
Given the binder F2.127.11 human-murine chimeric antibody (antibody, human IgG1, lambda, V domains shown, Chimeric, human IgG1 / lambda; VL tied by name) VH: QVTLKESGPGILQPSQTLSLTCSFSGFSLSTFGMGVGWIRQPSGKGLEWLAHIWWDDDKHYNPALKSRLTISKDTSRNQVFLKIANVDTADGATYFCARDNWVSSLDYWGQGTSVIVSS VL: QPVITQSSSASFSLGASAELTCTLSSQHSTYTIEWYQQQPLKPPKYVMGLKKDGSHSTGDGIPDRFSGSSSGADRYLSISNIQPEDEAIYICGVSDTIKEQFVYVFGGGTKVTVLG , what is its reported OD450?
0.06
